Catalogue of molecules with associated pEC50
- Experimental Target: DOR (Homo sapiens, UniProt P41143)
- Sequence (P41143 whole entry): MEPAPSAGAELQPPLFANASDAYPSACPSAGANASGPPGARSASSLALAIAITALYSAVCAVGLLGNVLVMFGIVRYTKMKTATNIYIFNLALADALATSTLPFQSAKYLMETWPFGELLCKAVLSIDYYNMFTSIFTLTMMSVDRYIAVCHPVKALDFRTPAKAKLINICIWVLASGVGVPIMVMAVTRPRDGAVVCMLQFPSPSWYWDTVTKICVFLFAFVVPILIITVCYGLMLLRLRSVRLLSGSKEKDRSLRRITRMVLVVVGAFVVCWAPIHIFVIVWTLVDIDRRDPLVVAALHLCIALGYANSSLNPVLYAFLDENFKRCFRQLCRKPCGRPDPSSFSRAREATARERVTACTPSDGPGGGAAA
- Assay Notes: [35S]GTPγS binding assay, CHO-hDOR membranes
- Study Conditions: [35S]GTPγS, CHO human DOR membranes
# reply with the number alone; pEC50 is -log10 of concentration in mol/L

Some solved entries appear below for comparison.
Molecule: CC[C@H](N[C@H]1CC[C@@]2(OC)[C@H]3Cc4ccc(O)c5c4[C@@]2(CCN3C)[C@H]1O5)C(=O)O [Compound 19a]
pEC50: 7.01

Molecule: CO[C@@]12CC[C@@H](N[C@@H](CO)C(=O)O)[C@@H]3Oc4c(O)ccc5c4[C@@]31CCN(C)[C@@H]2C5
pEC50: 8.16

Field: next molecule
Provide measured pEC50 value, entry: CO[C@@]12CC[C@@H](N[C@@H](CCC(=O)O)C(=O)O)[C@@H]3Oc4c(O)ccc5c4[C@@]31CCN(C)[C@@H]2C5.Cl.Cl [Compound 14b]
8.34

Data provenance is paper PMC6348443.
